Item-by-item account of DC50
TESTED_SYSTEM: Androgen Receptor (Homo sapiens, UniProt P10275+P40337, T878A)
Construct: Compounds have been evaluated in this assay in LNCaP and/or VCaP cells utilizing similar protocols; endogenous in cells; host or cells: LNCaP cells
MEASUREMENT_PROTOCOL: Androgen Receptor ELISA assay (PathScan AR ELISA) in LNCaP cells: AR degradation, Dmax and DC50
Format: cell-based
CONDITION_DESCRIPTION: concentration that caused 50% Androgen Receptor degradation

1) Cc1ncsc1-c1ccc(CNC(=O)[C@@H]2C[C@@H](O)CN2C(=O)[C@@H](NC(=O)COCCCCCOC2CCN(C(=O)c3ccc(N4C(=S)N(c5ccc(C#N)c(C(F)(F)F)c5)C(=O)C4(C)C)cc3)CC2)C(C)(C)C)cc1 = 51 to 500 nM
2) Cc1ncsc1-c1ccc([C@H](C)NC(=O)[C@@H]2C[C@@H](O)CN2C(=O)[C@@H](NC(=O)COCCCOCCCCCOc2ccc(N3C(=S)N(c4ccc(C#N)c(C(F)(F)F)c4)C(=O)C3(C)C)cc2F)C(C)(C)C)cc1 = < 50 nM
3) Cc1ncsc1-c1ccc(CNC(=O)[C@@H]2C[C@@H](O)CN2C(=O)[C@@H](NC(=O)OCCCCCOc2ccc(-c3ccc(N4C(=S)N(c5ccc(C#N)c(C(F)(F)F)c5)C(=O)C4(C)C)cc3)cc2)C(C)(C)C)cc1 = < 50 nM

Field: next molecule
The molecule Cc1ncsc1-c1ccc(CNC(=O)[C@@H]2C[C@@H](O)CN2C(=O)[C@@H](NC(=O)COCC#CC#CCOc2ccc(N3C(=S)N(c4ccc(C#N)c(C(F)(F)F)c4)C(=O)C3(C)C)cc2)C(C)(C)C)cc1 on Androgen Receptor (Homo sapiens, UniProt P10275+P40337, T878A): DC50 was > 501 nM

* * *

TESTED_SYSTEM: Androgen Receptor (Homo sapiens)
Construct: endogenous in cells; host or cells: VCaP cells
Sequence (P10275 1-920): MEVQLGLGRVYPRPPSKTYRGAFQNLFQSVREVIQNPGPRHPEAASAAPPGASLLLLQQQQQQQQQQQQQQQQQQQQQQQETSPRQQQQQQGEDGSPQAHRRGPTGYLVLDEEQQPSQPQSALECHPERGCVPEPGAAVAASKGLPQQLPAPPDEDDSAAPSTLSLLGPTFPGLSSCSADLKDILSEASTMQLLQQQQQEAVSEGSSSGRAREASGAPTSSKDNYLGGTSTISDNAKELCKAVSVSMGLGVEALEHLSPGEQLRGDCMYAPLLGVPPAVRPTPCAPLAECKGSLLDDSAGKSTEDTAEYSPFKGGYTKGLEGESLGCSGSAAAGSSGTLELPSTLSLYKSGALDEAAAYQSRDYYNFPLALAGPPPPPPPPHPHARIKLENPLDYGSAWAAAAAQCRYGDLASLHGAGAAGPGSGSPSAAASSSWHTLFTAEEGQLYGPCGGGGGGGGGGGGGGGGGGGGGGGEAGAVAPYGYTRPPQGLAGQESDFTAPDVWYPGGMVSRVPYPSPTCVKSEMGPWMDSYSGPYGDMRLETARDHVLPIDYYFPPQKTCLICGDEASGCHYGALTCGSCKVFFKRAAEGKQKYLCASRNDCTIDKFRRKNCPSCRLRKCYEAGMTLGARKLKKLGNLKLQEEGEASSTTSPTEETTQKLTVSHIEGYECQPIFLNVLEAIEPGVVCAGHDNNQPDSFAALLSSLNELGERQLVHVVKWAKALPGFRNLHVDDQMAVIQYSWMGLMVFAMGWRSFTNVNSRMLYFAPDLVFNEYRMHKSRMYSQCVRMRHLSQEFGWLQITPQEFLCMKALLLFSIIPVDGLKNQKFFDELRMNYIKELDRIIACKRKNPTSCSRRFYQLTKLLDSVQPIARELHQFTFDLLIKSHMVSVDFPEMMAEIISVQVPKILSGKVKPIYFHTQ
MEASUREMENT_PROTOCOL: Androgen Receptor ELISA assay (PathScan AR ELISA) in VCaP cells: AR degradation, Dmax and DC50
Type: cell-based
CONDITION_DESCRIPTION: VCaP, VCaP cells; Table 35; read-out: VCaP Dmax (%)
Procedure: 1. Androgen Receptor ELISA Assay. The protocols used with VCaP cells are described below. The androgen receptor ELISA assay was performed using PathScan AR ELISA (Cell Signaling Catalog #12850) according to the following assay steps: […]
MEASURED_ATTRIBUTE: Dmax

Here's what some known entries look like.
1. C[C@H](NC(=O)[C@@H]1C[C@@H](O)CN1C(=O)[C@@H](NC(=O)COCCCCOc1ccc(C(=O)N[C@H]2C(C)(C)[C@H](Oc3ccc(C#N)c(Cl)c3)C2(C)C)cc1)C(C)(C)C)c1ccc(Cl)cc1 [Example 572] = > 71%
2. CC(C)(C)[C@H](NC(=O)COCCCCCNc1ccc(C(=O)N[C@H]2C(C)(C)[C@H](Oc3ccc(C#N)c(Cl)c3)C2(C)C)cc1)C(=O)N1C[C@H](O)C[C@H]1C(=O)NCc1ccc(C#N)cn1 [Example 539] = 26 to 50%
3. Cc1ncsc1-c1ccc(CNC(=O)[C@@H]2C[C@@H](O)CN2C(=O)[C@@H](NC(=O)COCCCOCCCCCOc2ccc(N3C(=S)N(c4ccccc4)C(=O)C3(C)C)cc2)C(C)(C)C)cc1 [Example 477] = < 25%

Value of Dmax reported for the compound CC(C)(C)[C@H](NC(=O)COCCCCOc1ccc(C(=O)N[C@H]2C(C)(C)[C@H](Oc3ccc(C#N)c(Cl)c3)C2(C)C)cc1)C(=O)N1C[C@H](O)C[C@H]1C(=O)NCc1ccc(-n2cccn2)cc1 [Example 568] is > 71%

// recorded Dmax for CNC[C@H](NC(=O)[C@@H]1C[C@@H](O)CN1C(=O)[C@@H](NC(=O)COCCCCCOc1ccc(C(=O)N[C@H]2C(C)(C)[C@H](Oc3ccc(C#N)c(Cl)c3)C2(C)C)cc1)C(C)(C)C)c1ccc(-c2scnc2C)cc1 [Example 515] : > 71%
